Every entry's value here was drawn from the supplement of paper PMC10338343.

# Tested on: MILI (PIWIL2) piRISC loaded with L1MC piRNA (26 nt);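 further: 1 nM active piRISC with 0.1 nM target library at 33 °C single turnover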
# Procedure Text: pre-steady-state target cleavage rate (min^-1); guide: L1MC piRNA 5'p-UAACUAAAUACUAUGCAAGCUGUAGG; higher = faster piRNA-guided slicing of the target
# Conditions Used: auxiliary factor: 500 nM mouse GTSF1
Classification field: rule met = pre-steady-state target cleavage rate at or over 0.2; rule not met = pre-steady-state target cleavage rate under 0.2.

Check out these entries, answers already filled in.
{"Sequence Code": "UCCUGCUACAGCUACGAUAGUAUUUAGUUA", "Target Or System": "MILI (PIWIL2) piRISC loaded with L1MC piRNA (26 nt)", "Cat": "rule met"}
{"Sequence Code": "UCCUGGUACAGCUUUGCAUAGUAUUUAGUUA", "Target Or System": "MILI (PIWIL2) piRISC loaded with L1MC piRNA (26 nt)", "Cat": "rule not met"}
{"Sequence Code": "UCCUGGAUGUGCUUGCUUAGUAUUUAGAUA", "Target Or System": "MILI (PIWIL2) piRISC loaded with L1MC piRNA (26 nt)", "Cat": "rule not met"}
{"Sequence Code": "UCCUGGAACACGAUGCAUAGUAUUUAGUAA", "Target Or System": "MILI (PIWIL2) piRISC loaded with L1MC piRNA (26 nt)", "Cat": "rule not met"}
{"Sequence Code": "UCCUGGAUGUCGAAGCAUAGUCUUUAGUUA", "Target Or System": "MILI (PIWIL2) piRISC loaded with L1MC piRNA (26 nt)", "Cat": "rule not met"}
{"Sequence Code": "UCCUGGAACAGCUUGCAUAGUAUUUGGUUA", "Target Or System": "MILI (PIWIL2) piRISC loaded with L1MC piRNA (26 nt)", "Cat": "rule met"}

Please find the next sequence below.
Query string: Please tell me: is the sequence UCCUGCUUCAGCUUGCAUAGUAUUUAGAUA at or over 0.2 in terms of pre-steady-state target cleavage rate?
Result string: rule not met

====

# Tested on: MILI (PIWIL2) piRISC loaded with piRNA #1 (26 nt);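 further: 1 nM active piRISC with 0.1 nM target library at 33 °C single turnover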
# Procedure Text: pre-steady-state target cleavage rate (min^-1); guide: piRNA #1 5'p-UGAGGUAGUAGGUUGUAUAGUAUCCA; higher = faster piRNA-guided slicing of the target
# Conditions Used: auxiliary factor: 500 nM mouse GTSF1
Measured Endpoint: pre-steady-state target cleavage rate
Answers are plain numbers.

These solved cases illustrate the format of a correct answer.
{"Sequence Code": "GGAGUGGAUACUAUACAACCUACUACCUCG [g2:g26:cont:t1G]", "pre-steady-state target cleavage rate": 0.164}
{"Sequence Code": "GGAGAGGAUACUUUACAUCCUACUACCUCA", "pre-steady-state target cleavage rate": 0.253}
{"Sequence Code": "GGAGACCUAUGUAUACAACCUACUACGACA", "pre-steady-state target cleavage rate": 0.0279}

Lab note: each sequence below needs its pre-steady-state target cleavage rate filled in.
1. GGAGUGGAUAGAAUACAACCUACUACCUCA
2. GGAGACCUAUGAUUACUACCUACAACCUCA
3. GGAGACGAUACUAUACAACCUACAACGUCA
4. GGAGUGGAUACUAUUCAACCUUCUACCUCA

Result string:
1. 0.156
2. 0.00398
3. 0.00524
4. 0.00907

Lab note: each sequence below needs its pre-steady-state target cleavage rate filled in.
1. GGAGUGGAUACUAUACAAGCUACUACCUGA
2. GGAGACCUAUGAAUACAUCCUACUUCCUCA
3. GGAGUGCAUACUAUACAACCUACUAGCUCA
4. GGAGAGGAUACUCUACAACCUACUACCUCA
5. GGAGACGAUACAUAACAACCUACUACCUCA
6. GGAGACGAUAGUAUACAACGUACUACCUCA
7. GGAGACCUAUCUAUACUACGUACUACCUCA

Result string:
1. 0.0875
2. 0.00892
3. 0.0656
4. 0.204
5. 0.114
6. 0.0209
7. 0.013

Lab note: each sequence below needs its pre-steady-state target cleavage rate filled in.
1. GGAGACCUAUGAAUACAACCUACUACCUCU [g2:g18:cont:t1U]
2. GGAGACGAUACUAUACAACCUACGUACCUCA
3. GGAGUGGAUACUAUACUACCUACUACCUGA
4. GGAGACCUAUGAUUACAACCUACUACCUCU [g2:g17:cont:t1U]
5. GGAGACCUAUGAAUACAACCUACUAUCCUCA

Result string:
1: 0.0139; 2: 0.108; 3: 0.104; 4: 0.00674; 5: 0.00841

Lab note: each sequence below needs its pre-steady-state target cleavage rate filled in.
1. GGAGACCUAUGUAUACAACCUACUACUUCA
2. GGAGAGGAUACUAUAGAACCUACUAGCUCA
3. GGAGACCUAUGAUUACAACCUACUACCGCA
4. GGAGAGGAUACUAGUACAACCUACUACCUCA
5. GGAGUGCAUACUAAACAACCUACUACCUCA

Result string:
[0.0634, 0.00752, 0.00418, 0.079, 0.147]

====

Kindly supply the reported pre-steady-state target cleavage rate values for the records listed here.
# System: MILI (PIWIL2) piRISC loaded with piRNA #1 (26 nt);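 further: 1 nM active piRISC with 0.1 nM target library at 33 °C single turnover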
# Procedure Text: pre-steady-state target cleavage rate (min^-1); guide: piRNA #1 5'p-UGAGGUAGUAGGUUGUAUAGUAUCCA; higher = faster piRNA-guided slicing of the target
# Conditions Used: auxiliary factor: 500 nM mouse GTSF1
Give bare numbers.

Lab note: each sequence below needs its pre-steady-state target cleavage rate filled in.
1. GGAGUGUGAUACUAUACAACCUACUACCUCA
2. GGAGACCAUAGUAUACAACCUACUAGCUCA
3. GGAGACCUAACUAUACAACCUACUAUCCUCA
4. GGAGACGAUACUAUACAACCAACUACCUCA

Result string:
1: 0.179; 2: 0.0143; 3: 0.177; 4: 0.00952

Lab note: each sequence below needs its pre-steady-state target cleavage rate filled in.
1. GGAGACGAUACAAAACAACCUACUACCUCA
2. GGAGACCUAUGUAUACAACCUACUUACCUCA
3. GGAGACCUAUGAAUUACAACCUACUACCUCA
4. GGAGACGUUACUAUACAACCUACAACCUCA
5. GGAGAGGAAUGUAUACAACCUACUACCUCA
6. GGAGACAAUACUAUACAACCUACUACCUCA
7. GGAGACCAUACUAUACAAGCUACUUCCUCA
8. GGAGUGGAUACUUUACAACCUAGUACCUCA

Result string:
1: 0.149; 2: 0.0503; 3: 0.00427; 4: 0.114; 5: 0.0539; 6: 0.253; 7: 0.193; 8: 0.0239

====

# Test system: MILI (PIWIL2) piRISC loaded with L1MC piRNA (26 nt);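 further: 1 nM active piRISC with 0.1 nM target library at 33 °C single turnover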
# Procedure Text: pre-steady-state target cleavage rate (min^-1); guide: L1MC piRNA 5'p-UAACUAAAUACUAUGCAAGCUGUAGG; higher = faster piRNA-guided slicing of the target
# Conditions Used: auxiliary factor: 500 nM mouse GTSF1
Classification field: YES = pre-steady-state target cleavage rate at or over 0.06; NO = pre-steady-state target cleavage rate under 0.06.

Check out these entries, answers already filled in.
{"Sequence Code": "UCCUGGAACAGCUUGCCAUAGUAUUUAGUUA", "Cat": "YES"}
{"Sequence Code": "UCCUGGAUGUCCUUGCAUAGUAUUUAGUAUA", "Cat": "YES"}
{"Sequence Code": "UCCUGGUACAGCUUGCAUAGUAAAUAGUAA", "Cat": "YES"}
{"Sequence Code": "UCCUGGAUGUGCUUGCAAAGUAUUUAGAUA", "Cat": "NO"}

Query string: Please tell me: is the sequence UCCUGGAACAGCUUGGAUAGUAUUUAGAAA at or over 0.06 in terms of pre-steady-state target cleavage rate?
Result string: NO

Query string: Please tell me: is the sequence UCCUGGAUGAGCUUGCAUUCUAUUUAGUUA at or over 0.06 in terms of pre-steady-state target cleavage rate?
Result string: NO

Query string: Please tell me: is the sequence UCCUGGAUGUCGUUGCAUAGUACUUUAGUUA at or over 0.06 in terms of pre-steady-state target cleavage rate?
Result string: NO

====

# System: MILI (PIWIL2) piRISC loaded with L1MC piRNA (26 nt);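 further: 1 nM active piRISC with 0.1 nM target library at 33 °C single turnover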
# Procedure Text: pre-steady-state target cleavage rate (min^-1); guide: L1MC piRNA 5'p-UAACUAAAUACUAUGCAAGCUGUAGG; MIWI and MILI are mouse PIWI proteins and EfPiwi is from a freshwater sponge; tags in brackets are library labels; higher = faster piRNA-guided slicing of the target
# Conditions Used: auxiliary factor: none (no GTSF1)
Measured Endpoint: pre-steady-state target cleavage rate
Answers are plain numbers.

These solved cases illustrate the format of a correct answer.
{"Sequence Code": "UCCUGCUAGAGCUUGCAAAGUAUUUAGUUA", "Target Or System": "MILI (PIWIL2) piRISC loaded with L1MC piRNA (26 nt)", "pre-steady-state target cleavage rate": 0.00382}
{"Sequence Code": "UCCUGCUACAGCUUGCAUAGUAUUUAAGUUA", "Target Or System": "MILI (PIWIL2) piRISC loaded with L1MC piRNA (26 nt)", "pre-steady-state target cleavage rate": 0.00882}
{"Sequence Code": "UCCUGGAUGAGCAAGCAUAGUAUUUAGUAA", "Target Or System": "MILI (PIWIL2) piRISC loaded with L1MC piRNA (26 nt)", "pre-steady-state target cleavage rate": 0.00443}
{"Sequence Code": "UCCUGGAACAGCAUGCAUAGUAUUUAGUUA", "Target Or System": "MILI (PIWIL2) piRISC loaded with L1MC piRNA (26 nt)", "pre-steady-state target cleavage rate": 0.00812}

Lab note: each sequence below needs its pre-steady-state target cleavage rate filled in.
1. UCCUGGAACAGCUUGCAUAGUAUUUAGUUG [g2:g23:cont:t1G]
2. UCCUGCUUCAGCUUGCAUUGUAUUUAGUUA
3. UCCUGGUACAAGCUUGCAUAGUAUUUAGUUA

Result string:
1: 0.00663; 2: 0.0103; 3: 0.0121
